Property: photoluminescence quantum yield; scope: individual molecules
Test: photoluminescence quantum yield (fraction); solvent given as SMILES
Conditions: in C1CCCCC1
Enter the number alone.

// worked examples, photoluminescence quantum yield included
# photoluminescence quantum yield lookup, item `CCN1/C(=C\c2c(-c3ccc(N(C)C)cc3)c(=O)c2=O)C=Cc2ccccc21`
0.0276

Next record, please: `CC1=[N+]2C(=C(Oc3ccccc3)c3ccc(C)n3[B-]2(F)F)C=C1c1cc2n(c1)[B-](F)(F)[N+]1=CC=CC1=C2c1c(C)cc(C)cc1C`
0.89

---
# photoluminescence quantum yield lookup, item `CC(C)[Si]1(C(C)C)c2cc(C=O)ccc2-c2ccc(N(C)C)cc21`
0.08

Next record, please: CC1(C)Oc2c(c3nc4ccccc4nc3c3ccccc23)CC1Br (stereo not given)
0.28

Next record, please: `COc1ccc(C2=C(c3ccc(OC)cc3)C(C)(C)c3ccc4ccccc4c32)cc1`
0.11
